This section presents compounds with their documented inhibition at 0.1 µM values.
biological target: mu receptor (Rattus norvegicus); construct: The brain tissue, rat whole brain minus cerebellum for mu was homogenized; from tissue; host or cells: brain minus cerebellum of male Sprague Dawley rats, homogenate fraction; assay: Naloxone [3H] opioid receptor binding assay (mu receptor); design: species or system rat (male Sprague Dawley); conditions: 20 min, pH 7.4; 100 nM test compound; [3H]naloxone 0.5 nM; mu receptor; read-out: % displacement at 100 nM
Structures can show the parent of a compound that is named as a salt.
Give just the number in %; leave the unit off.

Use these answered entries as a reference point.
Compound	U	inhibition at 0.1 µM
CCOC(=O)CCCC(=O)N(CCN1CC[C@@](C)(c2cccc(O)c2)[C@@H](C)C1)C1CCCCC1 (relative stereo) [Example 32, monohydrochloride]	%	100
CC(C)COC(=O)CCCC(=O)N[C@H](CC1CCCCC1)CN1CC[C@@](C)(c2cccc(O)c2)[C@@H](C)C1	%	53
CC(=O)NC(CCCNC(=N)N[N+](=O)[O-])C(=O)NCCN1CCC(C)(c2cccc(O)c2)C(C)C1 (stereo not drawn) [Example 42, monohydrate]	%	89
C[C@H]1CN(CCN(C(=O)CCC(=O)O)C2CCCC2)CC[C@@]1(C)c1cccc(O)c1 (relative stereo) [Example 24, hemihydrate]	%	89

Measured inhibition at 0.1 µM of CC(=O)OC(C)OC(=O)CCCC(=O)N[C@@H](CC1CCCCC1)CN1CC[C@@](C)(c2cccc(O)c2)[C@@H](C)C1 (stereo partly drawn) : 95

Measured inhibition at 0.1 µM of C[C@H]1CN(CCN(C(=O)CC(N)=O)C2CCCCC2)CC[C@@]1(C)c1cccc(O)c1 (relative stereo) [Example 34, monohydrate] : 91

* * *

target: mu receptor (Rattus norvegicus, UniProt P33535); construct: The brain tissue, rat whole brain minus cerebellum for mu was homogenized; from tissue; host or cells: brain minus cerebellum of male Sprague Dawley rats, homogenate fraction; assay: Naloxone [3H] opioid receptor binding assay (mu receptor); design: species or system rat (male Sprague Dawley); details: 20 min, pH 7.4; 100 nM test compound; [3H]naloxone 0.5 nM; mu receptor; read-out: % displacement at 100 nM
Sequence (P33535 whole entry): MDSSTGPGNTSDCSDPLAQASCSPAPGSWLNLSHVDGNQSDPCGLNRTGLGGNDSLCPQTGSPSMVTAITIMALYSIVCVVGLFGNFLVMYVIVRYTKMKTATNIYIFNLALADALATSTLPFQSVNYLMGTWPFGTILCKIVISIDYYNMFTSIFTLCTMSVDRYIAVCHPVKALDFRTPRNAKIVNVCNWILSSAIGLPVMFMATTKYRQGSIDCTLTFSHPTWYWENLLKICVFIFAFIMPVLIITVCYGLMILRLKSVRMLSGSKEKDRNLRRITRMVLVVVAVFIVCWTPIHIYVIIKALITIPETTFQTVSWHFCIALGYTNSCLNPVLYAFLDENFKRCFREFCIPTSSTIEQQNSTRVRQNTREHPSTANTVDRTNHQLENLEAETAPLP
Recorded endpoint: inhibition at 0.1 µM (%)
Give just the number in %; leave the unit off.

Measured inhibition at 0.1 µM of CC(C)CC(=O)NC(CCCNC(=N)N[N+](=O)[O-])C(=O)NCCN1CCC(C)(c2cccc(O)c2)C(C)C1 (stereo not shown) : 97

Measured inhibition at 0.1 µM of CC(C)COC(=O)CCC(=O)N(CCN1CC[C@@](C)(c2cccc(O)c2)[C@@H](C)C1)C1CCCCC1 (relative stereo) : 96

Measured inhibition at 0.1 µM of CC(C)COC(=O)CCCC(=O)N[C@@H](CC1CCCCC1)CN1CC[C@@](C)(c2cccc(O)c2)[C@@H](C)C1 : 92

Measured inhibition at 0.1 µM of C[C@H]1CN(CCN(C(=O)CC(=O)O)C2CCCCC2)CC[C@@]1(C)c1cccc(O)c1 (relative stereo) [Example 21, monohydrate] : 80

* * *

biological target: peripheral opioid receptors (Mus musculus); assay: mouse diarrhea test: precipitated diarrhea in morphine-maintained mice (peripheral opioid activity); type: in vivo; conditions: mouse diarrhea test; morphine-maintained mice; subcutaneous or oral; 30 min observation
Sequence (P42866 whole entry): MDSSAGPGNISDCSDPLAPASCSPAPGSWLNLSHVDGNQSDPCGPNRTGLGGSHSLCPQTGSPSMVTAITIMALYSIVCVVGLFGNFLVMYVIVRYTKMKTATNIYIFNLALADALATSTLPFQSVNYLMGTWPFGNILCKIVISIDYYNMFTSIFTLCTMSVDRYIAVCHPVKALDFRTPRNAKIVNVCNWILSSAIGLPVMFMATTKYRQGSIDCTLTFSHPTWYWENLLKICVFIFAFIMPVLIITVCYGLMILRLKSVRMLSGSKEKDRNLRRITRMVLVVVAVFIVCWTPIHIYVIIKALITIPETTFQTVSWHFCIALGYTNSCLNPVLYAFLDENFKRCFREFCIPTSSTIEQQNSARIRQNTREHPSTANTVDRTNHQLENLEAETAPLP
This section presents molecules with their documented ED50 values.
Give just the number in mg/kg; leave the unit off.

Molecule	Recorded endpoint	U	Measured number
C[C@@H]1CN(C[C@@H](CC2CCCCC2)NC(=O)CCCC(=O)O)CC[C@]1(C)c1cccc(O)c1 [Example 48D]	ED50	mg/kg	0.05
C[C@@H]1CN(C[C@H](CC2CCCCC2)NC(=O)CCCC(=O)OCC(N)=O)CC[C@]1(C)c1cccc(O)c1 [Example 60]	ED50	mg/kg	0.035
CCCOC(=O)CCCC(=O)N[C@@H](CC1CCCCC1)CN1CC[C@@](C)(c2cccc(O)c2)[C@@H](C)C1 [Example 54]	ED50	mg/kg	0.0015
C[C@H]1CN(C[C@H](CC2CCCCC2)NC(=O)CCCC(=O)OCC(N)=O)CC[C@@]1(C)c1cccc(O)c1 [Example 61]	ED50	mg/kg	0.13
C[C@@H]1CN(C[C@H](CC2CCCCC2)NC(=O)CCCC(=O)O)CC[C@]1(C)c1cccc(O)c1 [Example 47D]	ED50	mg/kg	0.01

Measured ED50 of C[C@H]1CN(CCC(NC(=O)C(CCCNC(=N)N[N+](=O)[O-])NC(=O)CCCC(=O)NCc2ccccc2)c2ccccc2)CC[C@@]1(C)c1cccc(O)c1 (single isomer, unassigned; (-)) [Example 8] : 0.64

* * *

target: peripheral opioid receptors (Mus musculus); experiment: mouse diarrhea test: precipitated diarrhea in morphine-maintained mice (peripheral opioid activity); type: in vivo; settings: 0.5 h; mouse diarrhea test; morphine-maintained mice; subcutaneous or oral; 30 min observation; read-out: ED50
Counter-ions that a name gives are not always drawn.
Recorded endpoint: ED50

Use these answered entries as a reference point.
Molecule	Recorded endpoint	Result
C[C@H]1CN(CCN(C(=O)CC(N)=O)C2CCCCC2)CC[C@@]1(C)c1cccc(O)c1 (relative stereo) [Example 34, monohydrate]	ED50	0.39 mg/kg
CCOC(=O)CCCC(=O)N(CCN1CC[C@@](C)(c2cccc(O)c2)[C@@H](C)C1)C1CCCCC1 (relative stereo) [Example 32, monohydrochloride]	ED50	0.16 mg/kg
C[C@H]1CN(C[C@@H](Cc2ccccc2)NC(=O)CC(=O)O)CC[C@@]1(C)c1cccc(O)c1 [Example 11]	ED50	0.3 mg/kg
CC(=O)NC(CCCNC(=N)N[N+](=O)[O-])C(=O)NCCN1CCC(C)(c2cccc(O)c2)C(C)C1 (stereo not drawn) [Example 42, monohydrate]	ED50	0.12 mg/kg
COC1CCC(OC(=O)CCCC(=O)N[C@@H](CC2CCCCC2)CN2CC[C@](C)(c3cccc(O)c3)[C@H](C)C2)CC1 (stereo partly drawn) [Example 69]	ED50	0.03 mg/kg
CCCCCCCOC(=O)CCCC(=O)N[C@@H](CC1CCCCC1)CN1CC[C@@](C)(c2cccc(O)c2)[C@@H](C)C1 [Example 57]	ED50	0.068 mg/kg
CC(C)CN(CCCN1CC[C@@](C)(c2cccc(O)c2)[C@@H](C)C1)C(=O)CCCC(=O)O (relative stereo) [Example 29, monohydrate]	ED50	0.99 mg/kg
CC(C)COC(=O)CCCC(=O)N[C@H](CC1CCCCC1)CN1CC[C@@](C)(c2cccc(O)c2)[C@@H](C)C1 [Example 59]	ED50	0.059 mg/kg
CCNC(=O)N[C@H](Cc1ccccc1)CN1CC[C@](C)(c2cccc(O)c2)[C@H](C)C1 [Example 17, hydrochloride monohydrate]	ED50	3.28 mg/kg
CC(C)CC(=O)NC(CCCNC(=N)N[N+](=O)[O-])C(=O)NCCN1CCC(C)(c2cccc(O)c2)C(C)C1 (stereo not drawn) [Example 43]	ED50	< 1 mg/kg

Measured ED50 for this entry CC(C)CCN(CCN1CC[C@@](C)(c2cccc(O)c2)[C@@H](C)C1)C(=O)CCC(=O)O (relative stereo) [Example 28, monohydrate] on peripheral opioid receptors (Mus musculus): 0.1 mg/kg

Measured ED50 for this entry C[C@H]1CN(CCN(C(=O)CCC(=O)OCC2CCCCC2)C2CCCCC2)CC[C@@]1(C)c1cccc(O)c1 (relative stereo) [Example 73] on peripheral opioid receptors (Mus musculus): 0.17 mg/kg

Measured ED50 for this entry C[C@@H]1CN(C[C@@H](Cc2ccccc2)NC(=O)CC(=O)O)CC[C@]1(C)c1cccc(O)c1 [Example 13, monohydrate] on peripheral opioid receptors (Mus musculus): 0.29 mg/kg

Measured ED50 for this entry CC(C)COC(=O)CCC(=O)N(CCN1CC[C@@](C)(c2cccc(O)c2)[C@@H](C)C1)C1CCCCC1 (relative stereo) [Example 72] on peripheral opioid receptors (Mus musculus): 0.017 mg/kg

Measured ED50 for this entry C[C@H]1CN(CCN(C(=O)CC(=O)O)C2CCCCC2)CC[C@@]1(C)c1cccc(O)c1 (relative stereo) [Example 21, monohydrate] on peripheral opioid receptors (Mus musculus): 0.073 mg/kg

* * *

system: peripheral opioid receptors; test: mouse diarrhea test: precipitated diarrhea in morphine-maintained mice (peripheral opioid activity); assay type: in vivo; conditions: mouse, in vivo
Counter-ions that a name gives are not always drawn.
This section presents compounds with their documented Ratio (ratio of AD50 to ED50) values.
// return just the number, without any unit appended

Compound	Recorded endpoint	Measured number
CC(C)CC(CCN1CC[C@@](C)(c2cccc(O)c2)[C@@H](C)C1)NC(=O)CCCC(=O)O (stereo partly drawn)	Ratio (ratio of AD50 to ED50)	250

Switching to the query record.
Measured Ratio (ratio of AD50 to ED50) of CC(C)CC(=O)NCCCC(=O)N(CCN1CC[C@@](C)(c2cccc(O)c2)[C@@H](C)C1)C1CCCCC1 (relative stereo) [Example 40, hydrochloride] : 3
